Ref: patent US20230125667A1

Tested on: UACC-257
Assay: NCI-60 growth inhibition: UACC-257 (Melanoma)
Assay type: cell-based, human
Conditions: Homo sapiens
Readings of GI50 for the listed molecules
test.readout: GI50 (nM)

smiles.record	observed.result
C=C1C(=O)O[C@H]2[C@H]1CC/C(COC(=O)NCc1ccc(Cn3c(=O)sn(CCCI)c3=O)cc1)=C\CC[C@@]1(C)O[C@@H]21	1790
C=C1C(=O)O[C@H]2[C@H]1CC/C(COC(=O)NCc1ccc(Cn3c(=O)sn(CCI)c3=O)cc1)=C\CC[C@@]1(C)O[C@@H]21	2240
C=C1C(=O)O[C@H]2[C@H]1CC/C(COC(=O)NCc1ccc(Cn3c(=O)sn(-c4ccccc4)c3=O)cc1)=C\CC[C@@]1(C)O[C@@H]21	1860
C=C1C(=O)O[C@H]2[C@H]1CC/C(COC(=O)NCc1ccc(Cn3c(=O)sn(-c4ccc(OC)cc4)c3=O)cc1)=C\CC[C@@]1(C)O[C@@H]21	2030
C=C1C(=O)O[C@H]2[C@H]1CC/C(COC(=O)NCc1ccc(Cn3c(=O)sn(CCCC)c3=O)cc1)=C\CC[C@@]1(C)O[C@@H]21	2030

* * *

Tested on: SF-268
Test: NCI-60 growth inhibition: SF-268 (CNS Cancer)
Format: cell-based, human
Conditions: Homo sapiens

smiles.record	GI50 [µM]
C=C1C(=O)O[C@H]2[C@H]1CC/C(COC(=O)NCc1ccc(Cn3c(=O)sn(CCCI)c3=O)cc1)=C\CC[C@@]1(C)O[C@@H]21	2.54
C=C1C(=O)O[C@H]2[C@H]1CC/C(COC(=O)NCc1ccc(Cn3c(=O)sn(CCI)c3=O)cc1)=C\CC[C@@]1(C)O[C@@H]21	2.41
C=C1C(=O)O[C@H]2[C@H]1CC/C(COC(=O)NCc1ccc(Cn3c(=O)sn(CCCC)c3=O)cc1)=C\CC[C@@]1(C)O[C@@H]21	4.28
C=C1C(=O)O[C@H]2[C@H]1CC/C(COC(=O)NCc1ccc(Cn3c(=O)sn(-c4ccc(OC)cc4)c3=O)cc1)=C\CC[C@@]1(C)O[C@@H]21	3.14
C=C1C(=O)O[C@H]2[C@H]1CC/C(COC(=O)NCc1ccc(Cn3c(=O)sn(-c4ccccc4)c3=O)cc1)=C\CC[C@@]1(C)O[C@@H]21	2.21

* * *

Readings of GI50 for the listed molecules
Test system: M14
Assay: NCI-60 growth inhibition: M14 (Melanoma)
Assay type: cell-based, human
Conditions: Homo sapiens
test.readout: GI50 (nM)

smiles.record	observed.result
C=C1C(=O)O[C@H]2[C@H]1CC/C(COC(=O)NCc1ccc(Cn3c(=O)sn(-c4ccc(OC)cc4)c3=O)cc1)=C\CC[C@@]1(C)O[C@@H]21	2190
C=C1C(=O)O[C@H]2[C@H]1CC/C(COC(=O)NCc1ccc(Cn3c(=O)sn(CCCC)c3=O)cc1)=C\CC[C@@]1(C)O[C@@H]21	1450
C=C1C(=O)O[C@H]2[C@H]1CC/C(COC(=O)NCc1ccc(Cn3c(=O)sn(CCCI)c3=O)cc1)=C\CC[C@@]1(C)O[C@@H]21	1740
C=C1C(=O)O[C@H]2[C@H]1CC/C(COC(=O)NCc1ccc(Cn3c(=O)sn(-c4ccccc4)c3=O)cc1)=C\CC[C@@]1(C)O[C@@H]21	1800
C=C1C(=O)O[C@H]2[C@H]1CC/C(COC(=O)NCc1ccc(Cn3c(=O)sn(CCI)c3=O)cc1)=C\CC[C@@]1(C)O[C@@H]21	1820

* * *

Test system: SK-MEL-2
Experiment: NCI-60 growth inhibition: SK-MEL-2 (Melanoma)
Assay type: cell-based, human
Conditions: Homo sapiens
Readings of GI50 for the listed compounds
test.readout: GI50 (µM)

smiles.record	test.readout	measurement.units	observed.result
C=C1C(=O)O[C@H]2[C@H]1CC/C(COC(=O)NCc1ccc(Cn3c(=O)sn(CCCI)c3=O)cc1)=C\CC[C@@]1(C)O[C@@H]21	GI50	µM	2.42
C=C1C(=O)O[C@H]2[C@H]1CC/C(COC(=O)NCc1ccc(Cn3c(=O)sn(-c4ccccc4)c3=O)cc1)=C\CC[C@@]1(C)O[C@@H]21	GI50	µM	2.39
C=C1C(=O)O[C@H]2[C@H]1CC/C(COC(=O)NCc1ccc(Cn3c(=O)sn(CCCC)c3=O)cc1)=C\CC[C@@]1(C)O[C@@H]21	GI50	µM	4.53
C=C1C(=O)O[C@H]2[C@H]1CC/C(COC(=O)NCc1ccc(Cn3c(=O)sn(-c4ccc(OC)cc4)c3=O)cc1)=C\CC[C@@]1(C)O[C@@H]21	GI50	µM	3.19
C=C1C(=O)O[C@H]2[C@H]1CC/C(COC(=O)NCc1ccc(Cn3c(=O)sn(CCI)c3=O)cc1)=C\CC[C@@]1(C)O[C@@H]21	GI50	µM	11.7
